Just for reference, patent EP4782453A1 is where these values come from.

Biological target: Menin-MLL (Homo sapiens, UniProt O00255)
Construct: His-Menin (M1-L615 end); purchased BIORTUS BP9210
Sequence (O00255 1-615 isoform O00255-1): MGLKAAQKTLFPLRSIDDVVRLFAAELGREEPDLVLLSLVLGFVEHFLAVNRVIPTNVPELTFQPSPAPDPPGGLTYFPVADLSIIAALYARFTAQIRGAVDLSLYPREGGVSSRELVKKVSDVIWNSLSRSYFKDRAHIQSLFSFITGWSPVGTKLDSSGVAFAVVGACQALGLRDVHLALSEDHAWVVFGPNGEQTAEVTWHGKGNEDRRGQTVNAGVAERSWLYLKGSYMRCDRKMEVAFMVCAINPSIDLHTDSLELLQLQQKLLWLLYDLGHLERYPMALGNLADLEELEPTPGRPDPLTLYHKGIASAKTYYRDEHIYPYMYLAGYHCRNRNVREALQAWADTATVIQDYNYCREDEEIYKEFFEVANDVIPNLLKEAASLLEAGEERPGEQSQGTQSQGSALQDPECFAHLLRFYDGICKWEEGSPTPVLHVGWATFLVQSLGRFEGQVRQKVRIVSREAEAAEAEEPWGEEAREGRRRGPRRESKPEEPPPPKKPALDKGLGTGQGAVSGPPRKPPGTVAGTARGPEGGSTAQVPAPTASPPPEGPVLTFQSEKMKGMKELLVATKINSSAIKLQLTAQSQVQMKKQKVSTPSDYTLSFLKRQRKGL
Assay: Inhibitory activity against Menin-MLL binding (fluorescence polarization)
Details: fluorescence polarization; 150 nM His-Menin, 15 nM FITC-MLL; 25°C for 60 min; read-out: Menin-MLL IC50
Procedure: • His-Menin (M1-L615 end), purchased from BIORTUS, Catalog Number: BP9210; and • FITC-MLL4-43, purchased from GenScript, Catalog Number: C491HFF190-3/PE1324. In a 10 µL reaction solution (20 mM HEPES, pH 7.5, 50 mM NaCl, 1 mM DTT, 0.01% BSA) containing any compound from the examples, 150 nM His-Menin was added to a 384-well plate (Corning, Model: 4514). […] Changes in fluorescence polarization were measured using a plate reader (PerkinElmer, Envision 2104). […]
READOUT_LABEL: IC50 (nM)

{"MOLECULE": "CCC(=O)N1CCC(CN2CC(Cc3cc(-c4ccc(F)cc4C(=O)N4CCOC[C@H]4C)c4cncc(C)n34)C2)CC1", "UNIT_LABEL": "nM", "NUMBER": 6}

(I) COCC1CN(CCC[C@@H](C(C)C)N2CC(c3cc(-c4ccc(F)cc4C(=O)N4CCOC[C@H]4C)c4cnn(C)c4c3)C2)C1
(II) CCN(C(=O)c1cc(F)ccc1-c1cc(C2CCN(CCc3ccc(-c4cc(OC)c(OC)nn4)cc3)CC2)cn2cncc12)C(C)C
(III) CNC(=O)N1CCC(CN2CC(c3cc(-c4ccc(F)cc4C(=O)N4CCOC[C@H]4C)c4c(F)nc(C)n4c3)C2)CC1
Please rank these molecules by IC50 in descending order. Respond with the label ranking, as requested. I, III, II
(I: 507 nM, III: 17 nM, II: 3.5 nM)

(A) CCN(C(=O)c1cc(F)ccc1-c1cc(N2CCN(C(=O)C3NCCC3c3ccccc3)CC2)cn2c(C)nc(Cl)c12)C(C)C (stereo not drawn)
(B) Cc1nc(F)c2c(-c3ccc(F)cc3C(=O)N3CCOC[C@H]3C)cc(C3CN([C@H](CCCN4CCC(F)CC4)C(C)C)C3)cn12
(C) CCN(C(=O)c1cc(F)ccc1-c1cc(C2CN([C@H](CCCN3CCOCC3)C(C)C)C2)cn2c(C)ncc12)C(C)C
(D) Cc1cncc2c(-c3ccc(F)cc3C(=O)N(C)C(C)C)cc(CC3CN([C@H](CCCN4CCN(CCO)CC4)C(C)C)C3)n12
(E) CCC(C1CCN(C(C)=O)CC1)N1CC(c2cc(-c3ccc(F)cc3C(=O)N3CCOC[C@H]3C)c3c(F)nc(C)n3c2)C1 (stereo partly drawn)
Kindly order the items shown according to IC50, from the highest value down. Lab note: final answer is the ordered label list. A, E, C, B, D
